# TARGET_UNDER_TEST: HIS-TGFβR2 WT (Homo sapiens)
# Sequence (P37173 23-567): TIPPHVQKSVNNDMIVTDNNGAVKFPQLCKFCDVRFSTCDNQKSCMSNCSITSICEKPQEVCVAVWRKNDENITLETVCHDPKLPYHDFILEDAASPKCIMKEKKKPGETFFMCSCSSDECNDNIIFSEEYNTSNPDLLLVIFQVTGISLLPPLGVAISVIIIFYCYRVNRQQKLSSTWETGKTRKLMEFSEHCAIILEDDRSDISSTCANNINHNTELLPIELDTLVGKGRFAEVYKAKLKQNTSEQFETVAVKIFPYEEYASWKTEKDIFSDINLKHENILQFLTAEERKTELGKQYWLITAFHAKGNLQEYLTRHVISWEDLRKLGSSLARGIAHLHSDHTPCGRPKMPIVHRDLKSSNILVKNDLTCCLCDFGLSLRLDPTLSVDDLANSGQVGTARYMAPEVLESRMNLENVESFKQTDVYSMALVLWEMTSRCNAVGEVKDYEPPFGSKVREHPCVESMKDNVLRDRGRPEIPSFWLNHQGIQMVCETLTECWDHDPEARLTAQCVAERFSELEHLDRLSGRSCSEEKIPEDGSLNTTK
# PROCEDURE_TEXT: HTRF probe-displacement assay with HIS-TGFβR2 WT
# Type: binding
# CONDITION_NOTES: 1 nM HIS-TGFβR2 WT, labeled probe at Kd, 1 hour at room temperature
# log10(IC50) per record follows
TEST_READOUT: log10(IC50) (log10 of the value in µM)

> print(dat)
                         compound.structure  observed.value
1  NC(=O)c1cnc2ccc(-c3c(-c4ccc(F)cc4)nn4c3COCC4)cn12           -0.24
2  Cc1cc(-c2n[nH]cc2-c2ccc3ncc(C(N)=O)n3c2)ccc1F           -0.43
3  Cc1cc(-c2n[nH]c(C3CC3)c2-c2ccc3ncc(C#N)n3c2)ccc1F            0.47
4  Cn1nc(-c2ccc(F)cc2)c(-c2ccc3ncc(C(N)=O)n3c2)c1C1CC1           -0.09
5  N#Cc1cnc2ccc(-c3c[nH]nc3-c3cccc(F)n3)cn12           -0.59
6   Fc1ccc(-c2n[nH]cc2-c2cc(F)c3nccn3c2)cc1            1.01
7  N#CCn1cc(-c2ccc3ncc(C#N)n3c2)c(-c2ccc(F)c(Cl)c2)n1           -0.33
8  Cn1cc(-c2ccc3ncc(C(N)=O)n3c2)c(-c2ccc(F)cc2)n1            0.19
9  Cc1cccc(-c2n[nH]c(C3CC3)c2-c2ccc3ncc(C(N)=O)n3c2)n1           -2.40

---

# TARGET_UNDER_TEST: HIS-TGFβR2 WT (Homo sapiens)
# PROCEDURE_TEXT: HTRF probe-displacement assay with HIS-TGFβR2 WT
# Format: binding
# CONDITION_NOTES: 1 nM HIS-TGFβR2 WT, labeled probe at Kd, 1 hour at room temperature
TEST_READOUT: IC50 (µM)

> print(dat)
                                   compound  observed.value
1  Fc1ccc(-c2n[nH]cc2-c2ccc3ncc(F)n3c2)cc1 [Example 56]           0.533
2  Cc1[nH]nc(-c2cccc(F)n2)c1-c1ccc2ncc(C#N)n2c1 [Example 66]           0.277
3  O=C(NC1CC1)c1cnc2ccc(-c3c(-c4ccc(F)cc4)n[nH]c3C3CC3)cn12 [Example 92]            2.65
4  CC(C)c1[nH]nc(-c2ccc(F)cc2)c1-c1ccc2ncc(C(N)=O)n2c1 [Example 68]           0.176
5  Cc1cccc(-c2n[nH]c(C3CC3)c2-c2ccc3ncc(C#N)n3c2)n1 [Example 121]           0.216
6  Fc1ccc(-c2n[nH]cc2-c2ccn3ncnc3c2)cc1 [Example 29]             1.1
7  N#Cc1cnc2ccc(-c3c[nH]nc3-c3ccc(Cl)cc3)cn12 [Example 46]           0.214

---

# TARGET_UNDER_TEST: HIS-TGFβR1 T204D (Homo sapiens, UniProt P36897, T204D)
# Sequence (P36897 34-503 T204D): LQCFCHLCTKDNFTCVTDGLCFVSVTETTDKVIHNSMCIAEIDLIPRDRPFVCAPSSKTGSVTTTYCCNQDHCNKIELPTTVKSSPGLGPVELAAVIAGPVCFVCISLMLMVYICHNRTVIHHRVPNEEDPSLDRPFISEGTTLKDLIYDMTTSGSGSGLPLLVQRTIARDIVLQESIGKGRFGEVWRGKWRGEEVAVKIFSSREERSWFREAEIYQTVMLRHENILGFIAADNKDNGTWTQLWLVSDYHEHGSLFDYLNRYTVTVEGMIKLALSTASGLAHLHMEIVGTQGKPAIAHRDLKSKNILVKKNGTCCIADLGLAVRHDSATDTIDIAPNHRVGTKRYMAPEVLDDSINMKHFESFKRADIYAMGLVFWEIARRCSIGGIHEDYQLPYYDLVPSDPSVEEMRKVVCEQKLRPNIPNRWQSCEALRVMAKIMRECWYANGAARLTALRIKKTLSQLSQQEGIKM
# PROCEDURE_TEXT: HTRF probe-displacement assay with HIS-TGFβR1 T204D
# Type: binding
# CONDITION_NOTES: 1 nM HIS-TGFβR1 T204D, labeled probe at Kd, 1 hour at room temperature
# IC50 per record follows
TEST_READOUT: IC50 (µM)

> print(dat)
                          compound.structure  observed.value
 1  NC(=O)c1cnc2ccc(-c3c[nH]nc3-c3ccc(F)cc3)nn12           0.004
 2  CCOC(=O)c1cnc2ccc(-c3c[nH]nc3-c3ccc(F)cc3)cn12           0.003
 3  N#Cc1cnc2ccc(-c3c[nH]nc3-c3cccc(C(F)(F)F)n3)cn12           0.001
 4  Cc1nc(-c2nn(C)cc2-c2ccc3ncc(C#N)n3c2)ccc1F           0.001
 5  Cc1cc(-c2n[nH]c(C(C)C)c2-c2ccc3nccn3c2)ccc1F           0.001
 6  CC(C)c1[nH]nc(-c2ccc(F)cc2)c1-c1ccc2ncc(C#N)n2c1           0.004
 7  CCOC(=O)c1[nH]nc(-c2cccc(C)n2)c1-c1ccc2ncc(C#N)n2c1           0.002
 8      Fc1ccc(-c2n[nH]cc2-c2ccn3ncnc3c2)cc1           0.003
 9  CC(C)(O)c1cnc2ccc(-c3c(-c4ccc(F)cc4)n[nH]c3C3CC3)cn12            0.01
10  CCc1[nH]nc(-c2ccc(F)cc2)c1-c1ccc2ncc(C#N)n2c1           0.006
11  N#Cc1cnc2ccc(-c3c(-c4ccc(F)cc4)nn4c3COCC4)cn12           0.173
12  CC(=O)Nc1[nH]nc(-c2ccc(F)cc2)c1-c1ccc2ncc(C#N)n2c1           0.274
13  Cc1cccc(-c2n[nH]c(C3CC3)c2-c2ccc3ncc(C(N)=O)n3c2)n1           0.001
14  Cn1cc(-c2ccc3ncc(C#N)n3c2)c(-c2ccc(F)cc2)n1           0.042
15  Cn1cc(-c2ccc3ncc(C(N)=O)n3c2)c(-c2ccc(F)cc2)n1           0.002
16  Cc1cc(-c2n[nH]cc2-c2ccc3ncc(C#N)n3c2)ccc1F           0.001
17  NC(=O)c1cnc2ccc(-c3c(-c4ccc(F)cc4)n[nH]c3C(F)(F)F)cn12           0.001
18  N#Cc1cnc2ccc(-c3cn(CC(F)F)nc3-c3ccc(F)c(Cl)c3)cn12           0.007
19  Cc1cccc(-c2n[nH]c(C(C)C)c2-c2ccc3ncc(C#N)n3c2)n1           0.001
20  Cc1cccc(-c2n[nH]c(C3CC3)c2-c2ccc3nccn3c2)n1           0.001
21  CC(=O)Nc1[nH]nc(-c2ccc(F)cc2)c1-c1ccc2ncc(C(N)=O)n2c1           0.027
22  N#Cc1cnc2ccc(-c3c(-c4ccc(F)cc4)n[nH]c3C3CC3)cn12           0.003
23  N#Cc1cnc2ccc(-c3c[nH]nc3-c3ccc(F)c(Cl)c3)cn12           0.001
24  Cc1cccc(-c2nn(C)cc2-c2ccc3ncc(C#N)n3c2)n1           0.001
25  CC(C)c1[nH]nc(-c2ccc(Cl)cc2)c1-c1ccc2ncc(C(N)=O)n2c1           0.001
26  CCOC(=O)c1cnc2ccc(-c3cn(C)nc3-c3cccc(C)n3)cn12           0.001
